Assignment: determine reported IC50 (HIgAB) HL-60 for the given binders.
target.system: T1, HlgAB (Staphylococcus aureus, UniProt P0A074 30-309)
T1 sequence 1: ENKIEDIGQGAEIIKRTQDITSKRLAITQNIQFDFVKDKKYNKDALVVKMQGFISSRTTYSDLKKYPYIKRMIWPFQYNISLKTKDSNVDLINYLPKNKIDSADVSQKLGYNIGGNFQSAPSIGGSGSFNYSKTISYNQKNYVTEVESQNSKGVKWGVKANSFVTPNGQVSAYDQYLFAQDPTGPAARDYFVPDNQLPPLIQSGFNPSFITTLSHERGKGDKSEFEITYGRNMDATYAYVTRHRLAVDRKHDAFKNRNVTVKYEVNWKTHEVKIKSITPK
T1 sequence 2: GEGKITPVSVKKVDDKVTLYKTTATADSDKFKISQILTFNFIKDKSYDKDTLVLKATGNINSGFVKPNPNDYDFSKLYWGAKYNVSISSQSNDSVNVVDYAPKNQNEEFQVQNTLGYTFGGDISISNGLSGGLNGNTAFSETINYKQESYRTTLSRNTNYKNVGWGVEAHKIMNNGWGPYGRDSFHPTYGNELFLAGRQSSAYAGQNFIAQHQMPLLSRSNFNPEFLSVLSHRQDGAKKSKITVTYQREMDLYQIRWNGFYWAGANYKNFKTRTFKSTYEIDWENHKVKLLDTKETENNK
experiment: cell-based or functional assay
Dear colleague, please return just the value in µg/mL, with no unit written.

Using the record for SAN481-TF-YTE (antibody, V domains shown, also called QD4; SAN481-VH28T100E-YTE) VH: QLQLVESGGGAVQPGRSLKLSCAASGFTFSTYAMHWVRQAPGRGLEWVAVTSFDGSNEYYIDSVKGRFTISRDNTKNTLYLQMTGLRVEDTALYFCARDEYTGGFYSVGYWGQGTLVTVSS VL: QSVLTQPPSASGTPGQRVTISCSGNSYNIGSNSVYWYQQFPGTAPKLLISRSIQRPSGVPDRFSGSKSVTSASLAISGLRSEDEADYYCAAWDDSLRAWVFGGGTKLTVLG , state its measured IC50 (HIgAB) HL-60.
0.44

Quote IC50 (HIgAB) HL-60 reported for SAN481-T-YTE (antibody, V domains shown, also called QD3; SAN481VH28T-YTE) VH: QLQLVESGGGAVQPGRSLKLSCAASGFTFSTYAMHWVRQAPGRGLEWVAVTSFDGSNEYYIDSVKGRFTISRDNTKNTLYLQMTGLRVEDTALYFCARDEYTGGWYSVGYWGQGTLVTVSS VL: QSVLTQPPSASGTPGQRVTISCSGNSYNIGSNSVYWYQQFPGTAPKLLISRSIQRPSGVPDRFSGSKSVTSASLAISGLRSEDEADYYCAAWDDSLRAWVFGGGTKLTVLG please.
0.54

// fetch IC50 (HIgAB) HL-60 given entry SAN481-SY-YTE (antibody, V domains shown, also called QD2; SAN481VL26S32Y-YTE) VH: QLQLVESGGGAVQPGRSLKLSCAASGFNFSTYAMHWVRQAPGRGLEWVAVTSFDGSNEYYIDSVKGRFTISRDNTKNTLYLQMTGLRVEDTALYFCARDEYTGGWYSVGYWGQGTLVTVSS VL: QSVLTQPPSASGTPGQRVTISCSGSSYNIGSNYVYWYQQFPGTAPKLLISRSIQRPSGVPDRFSGSKSVTSASLAISGLRSEDEADYYCAAWDDSLRAWVFGGGTKLTVLG
0.55

Output IC50 (HIgAB) HL-60 of SAN481-SYT-YTE (antibody, V domains shown, also called QD5) VH: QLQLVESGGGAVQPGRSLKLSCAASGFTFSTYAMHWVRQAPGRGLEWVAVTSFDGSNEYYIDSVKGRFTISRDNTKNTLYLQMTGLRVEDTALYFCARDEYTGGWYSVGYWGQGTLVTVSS VL: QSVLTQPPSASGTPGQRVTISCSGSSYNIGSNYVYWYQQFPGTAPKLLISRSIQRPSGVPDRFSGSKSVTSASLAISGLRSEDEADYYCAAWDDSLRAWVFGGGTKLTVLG
0.54
